Where these numbers come from: patent US20070259087A1

test system: E. coli TOP10; format: cell-based; settings: 0.01% arabinose, end point OD450 after 14 hours, 37 degrees Celsius
Field: Growth inhibition using 0.01% arabinose (%). Provide a value for each of the sequences that follow.
Write the value in % as a bare number.

# return recorded Growth inhibition using 0.01% arabinose (%) for input GWFNKLKTKIKKTLKHVL (Synthetic antimicrobial peptide) [SEQ ID NO:11] 72

Dear colleague, please send me the reported Growth inhibition using 0.01% arabinose (%) for GLLEKLRKALKRILQHVL (Synthetic antimicrobial peptide) [SEQ ID NO:12] when you can. 91

Fill in reported Growth inhibition using 0.01% arabinose (%) for this entry: GLLSILKRKSKRILKHIL (Synthetic antimicrobial peptide) [SEQ ID NO:24] 88

Read off the recorded Growth inhibition using 0.01% arabinose (%) for GLLSKLGKAVKNILEDVV (Synthetic antimicrobial peptide) [SEQ ID NO:28] 98

Report Growth inhibition using 0.01% arabinose (%), nothing else, for this sequence: GLFTKLRKATKRILEHVL (Synthetic antimicrobial peptide) [SEQ ID NO:3] 81

Return the recorded Growth inhibition using 0.01% arabinose (%) value; entry: GLLSKIRKKLKRVLQSIR (Synthetic antimicrobial peptide) [SEQ ID NO:20] 77

Give recorded Growth inhibition using 0.01% arabinose (%). GLFSLLRKTIKKVLQHIR (Synthetic antimicrobial peptide) [SEQ ID NO:32] 91

Given the sequence GLFSILKREIKRTFSNFYRWL (GLFSILKREIKRTFSMFYRWL; Synthetic antimicrobial peptide) [SEQ ID NO:41] , write its reported Growth inhibition using 0.01% arabinose (%). 86

Tell me Growth inhibition using 0.01% arabinose (%) reported for GWLKILEKAAKITVKNVL (Synthetic antimicrobial peptide) [SEQ ID NO:36] 98

Return Growth inhibition using 0.01% arabinose (%) (reported value) for this sequence: GILSMLERRWSMYCSIFCRWL (Synthetic antimicrobial peptide) [SEQ ID NO:45] 98

Hello, please tell me recorded Growth inhibition using 0.01% arabinose (%) for this one: GLWSSIKKEAKHALKHIL (Synthetic antimicrobial peptide) [SEQ ID NO:29] 55

Quick one: give measured Growth inhibition using 0.01% arabinose (%) for GLFRKLKKTIKRVLKHVP (Synthetic antimicrobial peptide) [SEQ ID NO:31] 86

Answer with reported Growth inhibition using 0.01% arabinose (%) of GWFSKLKKTAKKLLQRVL (Synthetic antimicrobial peptide) [SEQ ID NO:7] 76

Give the value of Growth inhibition using 0.01% arabinose (%) reported for the following: GMLSKLGITIKIAVKHIR (Synthetic antimicrobial peptide) [SEQ ID NO:6] 98

Using known records, supply Growth inhibition using 0.01% arabinose (%) for GLLGKIRKEGRNFWRVFRRWL (GLLGKIRKEGRMFWRVFRRWL; Synthetic antimicrobial peptide) [SEQ ID NO:38] 86
